Biological target: T1, Human FM3 (human, UniProt Q9HB89 1-426)
T1 construct: whole, on cells; Assayed as the membrane fraction of FM3-expressing CHO cells (1.2 mg/mL protein); also called NMUR1; FM3 receptor
T1 sequence (looked up): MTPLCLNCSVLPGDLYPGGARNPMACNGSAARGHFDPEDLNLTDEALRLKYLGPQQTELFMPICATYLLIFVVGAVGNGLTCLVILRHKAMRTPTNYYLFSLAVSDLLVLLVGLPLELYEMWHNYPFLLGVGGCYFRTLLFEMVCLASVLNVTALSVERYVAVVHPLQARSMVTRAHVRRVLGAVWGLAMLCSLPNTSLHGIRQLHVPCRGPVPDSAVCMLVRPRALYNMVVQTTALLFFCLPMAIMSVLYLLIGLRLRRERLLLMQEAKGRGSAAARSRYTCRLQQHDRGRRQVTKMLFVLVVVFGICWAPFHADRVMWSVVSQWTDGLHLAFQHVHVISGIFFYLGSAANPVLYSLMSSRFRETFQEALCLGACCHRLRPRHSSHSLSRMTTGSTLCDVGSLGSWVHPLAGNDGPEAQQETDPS
Assay: displacement of 125I-NMU8 from human FM3 CHO membrane fraction; IC50 relative to NMU-8;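 further: binding reaction run for 70 min at 25 °C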
Non-standard residues stand in square brackets, D forms with d. No end group written: not given here. *: point of attachment. Acetyl(2-(piperazin-1-yl)) = O=C(CN1CCNCC1)*; NMeA = CN[C@@H](C)C(=O)O; βAla = NCCC(=O)O
REPORTED METRIC: IC50 ratio

• [βAla]YFLFQPRN-NH2 (N-terminus assumed; SMILES CC(C)C[C@H](NC(=O)[C@H](Cc1ccccc1)NC(=O)[C@H](Cc1ccc(O)cc1)NC(=O)CCN)C(=O)N[C@@H](Cc1ccccc1)C(=O)N[C@@H](CCC(N)=O)C(=O)N1CCC[C@H]1C(=O)N[C@@H](CCCNC(=N)N)C(=O)N[C@@H](CC(N)=O)C(N)=O) [β-Ala0,Gln5-NMU-8 (Compound 1)] = 15 ratio to NMU-8 (=1)
• {Acetyl(2-(piperazin-1-yl))}-YELFR[NMeA]RN-NH2 (SMILES CC(C)C[C@H](NC(=O)[C@H](CCC(=O)O)NC(=O)[C@H](Cc1ccc(O)cc1)NC(=O)CN1CCNCC1)C(=O)N[C@@H](Cc1ccccc1)C(=O)N[C@@H](CCCNC(=N)N)C(=O)N(C)[C@@H](C)C(=O)N[C@@H](CCCNC(=N)N)C(=O)N[C@@H](CC(N)=O)C(N)=O, also called 2-(piperazin-1-yl)acetyl-[Glu2,NMeAla6]-NMU8) [NpipAc0,Glu2,NMeAla6-NMU-8 (Compound 21)] = 6500 ratio to NMU-8 (=1)
• [βAla]YWLFR[NMeA]RN-NH2 (N-terminus assumed; SMILES CC(C)C[C@H](NC(=O)[C@H](Cc1c[nH]c2ccccc12)NC(=O)[C@H](Cc1ccc(O)cc1)NC(=O)CCN)C(=O)N[C@@H](Cc1ccccc1)C(=O)N[C@@H](CCCNC(=N)N)C(=O)N(C)[C@@H](C)C(=O)N[C@@H](CCCNC(=N)N)C(=O)N[C@@H](CC(N)=O)C(N)=O) [β-Ala0,Trp2,NMeAla6-NMU-8 (Compound 17)] = 92 ratio to NMU-8 (=1)
